- protocol: Pharmacokinetic evaluation in TNBS induced colitis model (plasma levels, LC-MS/MS)
- Assay type: in vivo, male BALB/c mice
- condition-parameters: male, BALB/c, mouse; Per Oral, 1 mg/kg twice a day, after fifth dose, plasma, TNBS colitis mice; read-out: AUC0—12
assay-readout: AUC (µg·h/mL)

{"molecule": "O=C(O)CNC(=O)c1c(O)nc2sc3c(n2c1=O)CCCCC3 [compound A]", "value-reported": 0.0631}

###

- protocol: Excretion of compound A in feces, DSS induced colitis model
- Type: in vivo, female BALB/c mice
- condition-parameters: female, BALB/c, mouse, feces, po, 1 mg/kg, single oral 1 mg/kg, feces collected 96 hours, mean of 5 animals; read-out: Mean % Recovery in feces
- Description: 5% DSS (MW-36000-50000) dissolved in drinking water was provided to female BALB/c mice throughout the study duration of 9 days. Single administration of pharmaceutical composition comprising compound A at the dose of 1 mg/kg of compound A, at 10 ml/kg dosing volume was performed orally on day 5. Feces were collected for 96 hours post administration of the composition. Feces collected was analyzed for compound A levels using LC-MS/MS method.

{"item-smiles": "O=C(O)CNC(=O)c1c(O)nc2sc3c(n2c1=O)CCCCC3", "dose excreted": "58.7%"}

###

- protocol: Pharmacokinetic evaluation in TNBS induced colitis model (plasma levels, LC-MS/MS)
- Type: in vivo, male BALB/c mice
- condition-parameters: male, BALB/c, mouse, ip; Intraperitoneal, 1 mg/kg twice a day, after fifth dose, plasma, TNBS colitis mice

{"item-smiles": "O=C(O)CNC(=O)c1c(O)nc2sc3c(n2c1=O)CCCCC3", "unit": "ng/mL", "Cmax": 399}

###

- protocol: Pharmacokinetic evaluation in TNBS induced colitis model (plasma levels, LC-MS/MS)
- Format: in vivo, male BALB/c mice
- condition-parameters: male, BALB/c, mouse; Per Oral, 1 mg/kg twice a day, after fifth dose, plasma, TNBS colitis mice

{"item-smiles": "O=C(O)CNC(=O)c1c(O)nc2sc3c(n2c1=O)CCCCC3", "unit": "ng/mL", "Cmax": 13.2}

###

- protocol: Pharmacokinetic evaluation in TNBS induced colitis model (plasma levels, LC-MS/MS)
- Assay type: in vivo, male BALB/c mice
- condition-parameters: male, BALB/c, mouse, ip; Intraperitoneal, 1 mg/kg twice a day, after fifth dose, plasma, TNBS colitis mice; read-out: AUC0—12
assay-readout: AUC (ng·h/mL)

{"item-smiles": "O=C(O)CNC(=O)c1c(O)nc2sc3c(n2c1=O)CCCCC3", "value-reported": 256}

###

- protocol: Excretion of compound A in feces, DSS induced colitis model
- Type: in vivo, female BALB/c mice
- condition-parameters: female, BALB/c, mouse, feces, po, 1 mg/kg, single oral 1 mg/kg, feces collected 96 hours, individual animals; read-out: % Recovery in feces
assay-readout: dose excreted (%)

{"item-smiles": "O=C(O)CNC(=O)c1c(O)nc2sc3c(n2c1=O)CCCCC3", "value-reported": 63.9}
